I'd appreciate it if you could supply protein stability index values for the items below.
B1: EPB41L3 (parent)
chain: SDYISEFRFAPNHTKELEDKVIEL

variants of: B1; experiment: protein stability index of a GFP-peptide fusion (GPS, HEK-293T) (PSI 1-6); higher = more stable; details: c terminus: a fixed tail appended;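 further: lentivirally expressed fusions sorted by FACS into six bins by GFP to DsRed ratio, PSI derived from sequencing read proportions per bin multiplied by bin number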
// no unit, no text: just the number

Find the recorded protein stability index belonging to `L17P` and report it.
1.96

`T14V` ?
2.42

Same question for `D19Q` please.
1.71

Next record, please: `V21L`
2.48

What about `Y3H` ?
2.91

Please answer likewise for `E6P`
2.43

Query `K15C` next
2.25

Now consider `V21K` and answer again.
2.15

Queued: `V21C`
1.88

Next variant up: `R8I`
3.24

Repeat for the following variant: `E18R`
2.34

Now this one: `E16G`
1.81

Thanks! And `D19W` ?
3.08

Ok, now `A10P`
3.96

Next up: `Y3A`
2.76

# iterate: `I22H`
2.55

Same thing, different variant: `Y3N`
3.18

Another variant to look at: `L17T`
1.98

Next variant up: `D2K`
2.45

Input `H13M`
2.06

Okay, and `F7I` ?
3.94

# iterate: `I22T`
2.56

Consider next the variant `N12C` in the same way.
1.47

Also check `S5V`
2.19

Similarly, `F7Y` ?
3.71

What about this variant? `D19R`
1.39

Ref: the supplement of paper PMC10567573
